Test system: 521955-158-R2-J5-PDC complex spheroid viability
Test: Anticancer human tumor 521955-158-R2-J5-PDC patient-derived pancreatic carcinoma cell line growth inhibition [GQUAD]
Conditions: second compound 0.1 µM; first compound 0.0316 µM; stronger effect = lower value

>  <COMPOUND>
CC(C)n1c(=O)n(C)c2cnc3cc(F)c(-c4ccc(OCCCN5CCCCC5)nc4)cc3c21 + CN(C)c1ccc(Nc2c3ccc(NC(=O)CCN4CCCC4)cc3nc3cc(NC(=O)CCN4CCCC4)ccc23)cc1

>  <UNITS>
%

>  <viability, T/C>
98.6

$$$$
>  <COMPOUND>
CC1COCCN1c1cc(C2(S(C)(=N)=O)CC2)nc(-c2ccnc3[nH]ccc23)n1 (stereo not given) + CN(C)c1ccc(Nc2c3ccc(NC(=O)CCN4CCCC4)cc3nc3cc(NC(=O)CCN4CCCC4)ccc23)cc1

>  <UNITS>
%

>  <viability, T/C>
104

$$$$
>  <COMPOUND>
Cc1[nH]c2ccccc2c1CCNCc1ccc(/C=C/C(=O)NO)cc1 + CN(C)c1ccc(Nc2c3ccc(NC(=O)CCN4CCCC4)cc3nc3cc(NC(=O)CCN4CCCC4)ccc23)cc1

>  <UNITS>
%

>  <viability, T/C>
121

$$$$
>  <COMPOUND>
CC1COCCN1c1cc(C2(O)CC3CCC(C2)O3)c2cnn(-c3ccn[nH]3)c2n1 (stereo not given) + Cc1cnc(CNC(=O)c2c(=O)c3ccc(N4CCCN(C)CC4)nc3n3c2sc2ccccc23)cn1

>  <UNITS>
%

>  <viability, T/C>
23.1

$$$$
>  <COMPOUND>
Nc1ccn(C2OC(CO)C(O)C2(F)F)c(=O)n1 (stereo not given) + Cc1[nH]c2ccc(F)cc2c1-c1nc2c3cccnc3c3ncccc3c2[nH]1

>  <UNITS>
%

>  <viability, T/C>
77.1

$$$$

====

System: 521955-158-R2-J5-PDC complex spheroid viability
Test: Anticancer human tumor 521955-158-R2-J5-PDC cell line growth inhibition [GQUAD];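 also: spheroids exposed to agents for one week before reading; 100% = DMSO vehicle control viability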
Settings: second compound 10 µM; first compound 0.0316 µM; stronger effect = lower value

>  <COMPOUND>
C=CC(=O)N1CCN(c2nc(=O)n(-c3c(C)ccnc3C(C)C)c3nc(-c4c(O)cccc4F)c(F)cc23)C(C)C1 (stereo not given) + CN(C)c1ccc(Nc2c3ccc(NC(=O)CCN4CCCC4)cc3nc3cc(NC(=O)CCN4CCCC4)ccc23)cc1

>  <EXPERIMENTAL_SYSTEM>
521955-158-R2-J5-PDC complex spheroid viability

>  <UNITS>
%

>  <viability, T/C>
77.5

$$$$
>  <COMPOUND>
O=c1[nH]cc(F)c(=O)[nH]1 + Cc1[nH]c2ccc(F)cc2c1-c1nc2c3cccnc3c3ncccc3c2[nH]1

>  <EXPERIMENTAL_SYSTEM>
521955-158-R2-J5-PDC complex spheroid viability

>  <UNITS>
%

>  <viability, T/C>
105

$$$$
>  <COMPOUND>
COc1ccc([C@@H](O)c2cc(-c3ncnc4cc(N5CCOCC5)ccc34)c(F)cc2Cl)nn1 + CN(C)c1ccc(Nc2c3ccc(NC(=O)CCN4CCCC4)cc3nc3cc(NC(=O)CCN4CCCC4)ccc23)cc1

>  <EXPERIMENTAL_SYSTEM>
521955-158-R2-J5-PDC complex spheroid viability

>  <UNITS>
%

>  <viability, T/C>
59.8

$$$$
>  <COMPOUND>
CCCS(=O)(=O)Nc1ccc(F)c(C(=O)c2c[nH]c3ncc(-c4ccc(Cl)cc4)cc23)c1F + CN(C)c1ccc(Nc2c3ccc(NC(=O)CCN4CCCC4)cc3nc3cc(NC(=O)CCN4CCCC4)ccc23)cc1

>  <EXPERIMENTAL_SYSTEM>
521955-158-R2-J5-PDC complex spheroid viability

>  <UNITS>
%

>  <viability, T/C>
69.9

$$$$
>  <COMPOUND>
COc1cccc2c1C(=O)c1c(O)c3c(c(O)c1C2=O)CC(O)(C(=O)CO)CC3OC1CC(N)C(O)C(C)O1 (stereo not given) + Cc1cnc(CNC(=O)c2c(=O)c3ccc(N4CCCN(C)CC4)nc3n3c2sc2ccccc23)cn1

>  <EXPERIMENTAL_SYSTEM>
521955-158-R2-J5-PDC complex spheroid viability

>  <UNITS>
%

>  <viability, T/C>
18.4

$$$$
